Form: system (UniProtKB P00533), quantity (IC50), values below.

COMPOUND STRUCTURE | IC50, nM
CNc1ccc2ncnc(Nc3cccc(Br)c3)c2c1 | 5
O=C(NCCCl)Nc1ccc2ncnc(Nc3cccc(Cl)c3)c2c1 | 22
CNc1ccc2ncnc(Nc3cccc(C)c3)c2c1 | 11
CN(C(=O)N(CCCl)N=O)c1ccc2ncnc(Nc3cccc(Br)c3)c2c1 | 294
CNc1ccc2ncnc(Nc3cccc(Cl)c3)c2c1 | 4
O=C(NCCCl)Nc1ccc2ncnc(Nc3cccc(Br)c3)c2c1 | 18

###

ASSAYED SYSTEM: Epidermal growth factor receptor (Homo sapiens, UniProt P00533)
Sequence (P00533 whole entry): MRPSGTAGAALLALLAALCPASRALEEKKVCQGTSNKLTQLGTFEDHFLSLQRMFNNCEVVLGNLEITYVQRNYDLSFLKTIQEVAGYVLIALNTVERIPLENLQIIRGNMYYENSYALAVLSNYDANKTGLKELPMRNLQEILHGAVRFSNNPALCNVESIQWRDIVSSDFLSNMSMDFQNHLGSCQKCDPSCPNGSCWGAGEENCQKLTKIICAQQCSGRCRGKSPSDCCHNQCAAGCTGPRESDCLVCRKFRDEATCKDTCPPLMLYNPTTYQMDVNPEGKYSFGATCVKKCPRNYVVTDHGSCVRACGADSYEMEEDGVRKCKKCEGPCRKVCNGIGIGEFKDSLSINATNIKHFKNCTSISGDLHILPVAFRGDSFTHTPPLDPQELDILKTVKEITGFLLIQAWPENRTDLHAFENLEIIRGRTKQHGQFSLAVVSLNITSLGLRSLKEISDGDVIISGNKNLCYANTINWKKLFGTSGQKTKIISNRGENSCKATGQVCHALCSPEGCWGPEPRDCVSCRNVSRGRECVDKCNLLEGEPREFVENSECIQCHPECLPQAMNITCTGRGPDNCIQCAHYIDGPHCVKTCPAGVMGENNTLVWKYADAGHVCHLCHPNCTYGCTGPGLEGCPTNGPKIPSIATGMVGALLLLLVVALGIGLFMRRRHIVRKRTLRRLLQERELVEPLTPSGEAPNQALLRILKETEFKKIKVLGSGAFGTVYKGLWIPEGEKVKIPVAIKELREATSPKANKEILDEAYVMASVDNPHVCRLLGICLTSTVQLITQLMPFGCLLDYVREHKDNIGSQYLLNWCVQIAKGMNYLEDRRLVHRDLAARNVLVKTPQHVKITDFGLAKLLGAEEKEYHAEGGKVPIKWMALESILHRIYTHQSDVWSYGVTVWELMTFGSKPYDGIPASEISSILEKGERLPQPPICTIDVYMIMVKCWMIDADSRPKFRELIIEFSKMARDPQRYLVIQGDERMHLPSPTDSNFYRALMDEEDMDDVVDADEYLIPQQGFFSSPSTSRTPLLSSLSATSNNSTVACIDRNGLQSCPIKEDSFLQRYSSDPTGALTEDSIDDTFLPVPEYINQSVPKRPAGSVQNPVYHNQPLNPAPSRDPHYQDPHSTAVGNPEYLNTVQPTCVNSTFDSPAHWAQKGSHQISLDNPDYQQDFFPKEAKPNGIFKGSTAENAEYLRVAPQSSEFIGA

COMPOUND STRUCTURE | IC50
Cc1cccc(Nc2ncnc3ccc(NC(=O)N(CCCl)N=O)cc23)c1 | 1060 nM
Cc1cccc(Nc2ncnc3ccc(NC(=O)NCCCl)cc23)c1 | 676 nM
CN(C(=O)N(CCCl)N=O)c1ccc2ncnc(Nc3cccc(Cl)c3)c2c1 | 204 nM
O=NN(CCCl)C(=O)Nc1ccc2ncnc(Nc3cccc(Br)c3)c2c1 | 47 nM
